FYI, the data here is from patent US10961216B2.

System: 22Rv1 cell line lentiviral transduced with CMV-firefly luciferase
run.description: reporter gene assay to monitor transcriptional effects
Type: cell-based
condition.set: Homo sapiens; 22Rv1, CMV-firefly luciferase
pIC50: −log10 of the molar value.
// reported pIC50 per item

- molecule: "O=C(NCCC1CC2C=CC1C2)c1cccc(OC2CCN(C(=O)C3CCCC3)CC2)c1 (centres unmarked)"
  target.under.test: "22Rv1 cell line lentiviral transduced with CMV-firefly luciferase"
  pIC50: "~4.61"
- molecule: "O=C(NCC1CC2C=CC1CC2)c1cccc(OC2CCN(C(=O)C3CC3)CC2)c1 (centres unmarked)"
  target.under.test: "22Rv1 cell line lentiviral transduced with CMV-firefly luciferase"
  pIC50: "~4.59"
- molecule: "CN(Cc1cccc2ncccc12)C(=O)c1cccc(OC2CCN(C(=O)C3CC3)CC2)c1"
  target.under.test: "22Rv1 cell line lentiviral transduced with CMV-firefly luciferase"
  pIC50: 4.69
- molecule: "O=C(NCCC1CC2C=CC1C2)c1cccc(OC2CCN(C(=O)C3CCC3)CC2)c1 (centres unmarked)"
  target.under.test: "22Rv1 cell line lentiviral transduced with CMV-firefly luciferase"
  pIC50: "~4.60"
- molecule: "Cc1c(C(=O)N(C)Cc2cccc3ncccc23)sc2ncnc(NCCC3CC4C=CC3C4)c12 (centres unmarked)"
  target.under.test: "22Rv1 cell line lentiviral transduced with CMV-firefly luciferase"
  pIC50: 5.08
- molecule: "O=C(NCCC1CC2C=CC1C2)c1cccc(OC2CCN(C(=O)Cc3ccccc3)CC2)c1 (centres unmarked)"
  target.under.test: "22Rv1 cell line lentiviral transduced with CMV-firefly luciferase"
  pIC50: "~4.59"
- molecule: "O=C(NCCC1CC2C=CC1C2)c1cccc(OC2CCN(C(=O)C3CCCCC3)CC2)c1 (centres unmarked)"
  target.under.test: "22Rv1 cell line lentiviral transduced with CMV-firefly luciferase"
  pIC50: "~4.60"
- molecule: "Cc1c(C(=O)N(C)Cc2cccc3ncccc23)sc2ncnc(NCC3CC4C=CC3CC4)c12 (centres unmarked)"
  target.under.test: "22Rv1 cell line lentiviral transduced with CMV-firefly luciferase"
  pIC50: 5.63
